# EXPERIMENTAL TARGET: Hepatocyte growth factor receptor (Homo sapiens, UniProt P08581)
# Sequence (P08581 whole entry, the tested form may be a part): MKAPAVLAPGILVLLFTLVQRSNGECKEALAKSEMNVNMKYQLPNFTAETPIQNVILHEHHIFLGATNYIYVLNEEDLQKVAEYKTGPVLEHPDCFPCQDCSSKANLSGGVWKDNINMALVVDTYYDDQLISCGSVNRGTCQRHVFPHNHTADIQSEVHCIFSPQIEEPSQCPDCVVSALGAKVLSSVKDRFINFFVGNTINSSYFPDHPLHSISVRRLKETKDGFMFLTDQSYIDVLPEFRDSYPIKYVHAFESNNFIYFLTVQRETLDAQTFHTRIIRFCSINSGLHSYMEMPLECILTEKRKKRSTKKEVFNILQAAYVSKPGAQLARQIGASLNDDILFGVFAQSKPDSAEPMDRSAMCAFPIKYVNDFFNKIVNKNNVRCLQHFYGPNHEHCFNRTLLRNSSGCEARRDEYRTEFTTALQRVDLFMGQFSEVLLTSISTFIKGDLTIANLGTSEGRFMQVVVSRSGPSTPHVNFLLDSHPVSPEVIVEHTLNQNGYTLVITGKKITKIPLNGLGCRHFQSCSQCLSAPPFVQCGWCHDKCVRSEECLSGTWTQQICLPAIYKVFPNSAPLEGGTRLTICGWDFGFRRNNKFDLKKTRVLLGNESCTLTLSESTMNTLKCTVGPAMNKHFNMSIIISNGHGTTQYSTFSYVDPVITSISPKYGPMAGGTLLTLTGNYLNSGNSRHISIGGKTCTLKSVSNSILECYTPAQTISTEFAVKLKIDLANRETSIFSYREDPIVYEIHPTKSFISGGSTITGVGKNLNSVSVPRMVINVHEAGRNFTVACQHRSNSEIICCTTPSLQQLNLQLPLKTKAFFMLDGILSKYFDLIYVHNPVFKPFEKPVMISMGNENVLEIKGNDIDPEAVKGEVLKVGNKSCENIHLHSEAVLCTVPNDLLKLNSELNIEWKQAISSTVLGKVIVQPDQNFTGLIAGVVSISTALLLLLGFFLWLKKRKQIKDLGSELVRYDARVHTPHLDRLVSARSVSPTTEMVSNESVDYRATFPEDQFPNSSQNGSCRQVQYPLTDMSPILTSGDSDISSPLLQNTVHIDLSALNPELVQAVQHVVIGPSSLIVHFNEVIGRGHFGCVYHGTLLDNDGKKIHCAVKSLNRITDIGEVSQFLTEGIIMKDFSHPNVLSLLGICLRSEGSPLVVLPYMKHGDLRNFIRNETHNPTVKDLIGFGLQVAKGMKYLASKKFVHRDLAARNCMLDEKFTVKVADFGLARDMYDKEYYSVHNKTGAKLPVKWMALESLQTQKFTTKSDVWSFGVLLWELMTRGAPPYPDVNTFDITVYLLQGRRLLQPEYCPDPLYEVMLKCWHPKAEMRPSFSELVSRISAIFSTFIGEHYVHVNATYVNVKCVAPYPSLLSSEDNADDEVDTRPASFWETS
# EXPERIMENT DESCRIPTION: Inhibition of c-Met (unknown origin)
TEST READOUT: IC50 (nM)
# value in nM; strip the unit string

Challenge: Sample COc1cc2c(Oc3ccc(-c4cnc(Nc5ccccc5)n(C)c4=O)cc3F)ccnc2cc1OCCCN1CCOCC1 — what was its IC50?
Response given: 4.9

---

# EXPERIMENTAL TARGET: Hepatocyte growth factor receptor (Homo sapiens)
# EXPERIMENT DESCRIPTION: Inhibition of wild type GST-tagged c-Met kinase domain (1058 to 1365) (unknown origin) expressed in Sf9 cells by HTRF assay
TEST READOUT: IC50 (nM)
Just the number in nM, nothing appended.

Challenge: May I ask what IC50 has been recorded for COc1cc2c(Oc3ccc(-c4cnc(Cc5ccccc5)n(C)c4=O)cc3F)ccnc2cc1OCCCN1CCOCC1 ?
Response given: 8.9

---

# System: HT-29
# EXPERIMENT DESCRIPTION: Cytotoxicity against c-Met-dependent human HT-29 cells assessed as growth inhibition after 72 hrs by MTT assay
# ASSAY CONDITIONS: HT-29, 72 h
TEST READOUT: IC50
Write your answer as a measured quantity: the number, then the unit.

# count of solved cases: 6
>>> result("COc1cc2c(Oc3ccc(NC(=O)c4nn(-c5ccc(F)c(F)c5)c5ccccc5c4=O)cc3F)ccnc2cc1OCCCN1CCCC1")
"1120 nM"
>>> result("COc1cc2c(Oc3ccc(NC(=O)c4nn(-c5ccc(F)cc5Br)c5ccccc5c4=O)cc3F)ccnc2cc1OCCCN1CCCC1")
"2910 nM"
>>> result("COc1cc2c(Oc3ccc(NC(=O)c4nn(-c5cc(C)ccc5C)c5ccccc5c4=O)cc3F)ccnc2cc1OCCCN1CCOCC1")
"1150 nM"
>>> result("COc1cc2c(Oc3ccc(NC(=O)c4nn(-c5ccccc5C(F)(F)F)c5ccccc5c4=O)cc3F)ccnc2cc1OCCCN1CCOCC1")
"510 nM"
>>> result("COc1cc2c(Oc3ccc(NC(=O)c4nn(-c5c(Cl)cccc5Cl)c5ccccc5c4=O)cc3F)ccnc2cc1OCCCN1CCC(C)CC1")
"920 nM"
>>> result("COc1cc2c(Oc3ccc(NC(=O)c4nn(-c5ccc(Br)cc5)c5ccccc5c4=O)cc3F)ccnc2cc1OCCCN1CCCCC1")
"1140 nM"

Challenge: Looking for the measured IC50 of COc1cc2c(Oc3ccc(NC(=O)c4nn(-c5ccccc5OC(F)(F)F)c5ccccc5c4=O)cc3F)ccnc2cc1OCCCN1CCOCC1 , can you help?
Response given: 1120 nM

Challenge: Data request, read-out IC50, for COc1cc2c(Oc3ccc(NC(=O)c4nn(-c5ccc(Cl)cc5)c5ccccc5c4=O)cc3F)ccnc2cc1OCCCN1CCCCC1
Response given: 2120 nM

Challenge: Requested read-out: IC50. Entry: COc1cc2c(Oc3ccc(NC(=O)c4nn(-c5ccc(Cl)c(C(F)(F)F)c5)c5ccccc5c4=O)cc3F)ccnc2cc1OCCCN1CCC(C)CC1
Response given: 490 nM

Challenge: So what does the record say about IC50 for COc1cc2c(Oc3ccc(NC(=O)c4nn(-c5ccc(Cl)cc5Cl)c5ccccc5c4=O)cc3F)ccnc2cc1OCCCN1CCCCC1 ?
Response given: 990 nM

Challenge: I have this compound here, COc1cc2c(Oc3ccc(NC(=O)c4nn(-c5cccc(C(F)(F)F)c5)c5ccccc5c4=O)cc3F)ccnc2cc1OCCCN1CCCC1 , and I need its recorded IC50.
Response given: 780 nM

---

# System: A549
# EXPERIMENT DESCRIPTION: Cytotoxicity against c-Met-dependent human A549 cells assessed as growth inhibition after 72 hrs by MTT assay
# ASSAY CONDITIONS: A549, 72 h
Attribute: pIC50
Keep it numeric: pIC50 is minus log10 of the concentration in mol/L.

>>> numeric_readout("COc1cc2c(Oc3ccc(NC(=O)c4nn(-c5ccc(F)cc5Br)c5ccccc5c4=O)cc3F)ccnc2cc1OCCCN1CCCC1")
5.99
>>> numeric_readout("COc1cc2c(Oc3ccc(NC(=O)c4nn(-c5ccc(Cl)cc5Cl)c5ccccc5c4=O)cc3F)ccnc2cc1OCCCN1CCCCC1")
6.33

Kindly review the next compound as well.
Challenge: // query pIC50 value for entry COc1cc2c(Oc3ccc(NC(=O)c4nn(-c5cccc(F)c5)c5ccccc5c4=O)cc3F)ccnc2cc1OCCCN1CCCCC1
Response given: 6.96

---

# Test system: MKN-45
# EXPERIMENT DESCRIPTION: Cytotoxicity against c-Met-dependent human MKN45 cells assessed as growth inhibition after 72 hrs by MTT assay
# ASSAY CONDITIONS: MKN-45, 72 h
TEST READOUT: pIC50
Units for pIC50: none; it is -log10 of a concentration expressed in mol/L.

>>> numeric_readout("COc1cc2c(Oc3ccc(NC(=O)c4nn(-c5ccc(Cl)cc5)c5ccccc5c4=O)cc3F)ccnc2cc1OCCCN1CCCCC1")
6.64
>>> numeric_readout("COc1cc2c(Oc3ccc(NC(=O)c4nn(-c5cccc(F)c5)c5ccccc5c4=O)cc3F)ccnc2cc1OCCCN1CCCCC1")
6.85
>>> numeric_readout("COc1cc2c(Oc3ccc(NC(=O)c4nn(-c5ccccc5C(F)(F)F)c5ccccc5c4=O)cc3F)ccnc2cc1OCCCN1CCCCC1")
7.57

Challenge: Could you share what pIC50 was measured for COc1cc2c(Oc3ccc(NC(=O)c4nn(-c5ccccc5F)c5cc(F)ccc5c4=O)cc3F)ccnc2cc1OCCCN1CCOCC1 , tested on MKN-45?
Response given: 5.81

Challenge: pIC50 of COc1cc2c(Oc3ccc(NC(=O)c4nn(-c5cc(C)ccc5C)c5ccccc5c4=O)cc3F)ccnc2cc1OCCCN1CCCC1 on MKN-45?
Response given: 6.38

Challenge: Fill in the recorded pIC50 for this compound, with MKN-45 as test system: COc1cc2c(Oc3ccc(NC(=O)c4nn(-c5ccc(C)cc5)c5ccccc5c4=O)cc3F)ccnc2cc1OCCCN1CCC(C)CC1
Response given: 5.91

Challenge: # returns recorded pIC50 (system: MKN-45) for COc1cc2c(Oc3ccc(NC(=O)c4nn(-c5cccc(C(F)(F)F)c5)c5ccccc5c4=O)cc3F)ccnc2cc1OCCCN1CCCC1
Response given: 6.72

---

# System: MKN-45
# EXPERIMENT DESCRIPTION: Cytotoxicity against c-Met-dependent human MKN45 cells assessed as growth inhibition after 72 hrs by MTT assay
# ASSAY CONDITIONS: MKN-45, 72 h
Output Criterion met for records whose IC50 is lower than 200 nM, Criterion not met for records at or above 200 nM.

>>> qualitative_label("COc1cc2c(Oc3ccc(NC(=O)c4nn(-c5ccc(C)cc5)c5ccccc5c4=O)cc3F)ccnc2cc1OCCCN1CCOCC1")
"Criterion not met"

Challenge: Lab log: compare recorded IC50 with 200 nM; is it strictly lower for COc1cc2c(Oc3ccc(NC(=O)c4nn(-c5ccc(Cl)c(C(F)(F)F)c5)c5ccccc5c4=O)cc3F)ccnc2cc1OCCCN1CCC(C)CC1 ?
Response given: Criterion met

Challenge: I wonder whether COc1cc2c(Oc3ccc(NC(=O)c4nn(-c5ccc(F)cc5)c5ccccc5c4=O)cc3F)ccnc2cc1OCCCN1CCC(C)CC1 has IC50 below 200 nM. Can you tell?
Response given: Criterion met

Challenge: Consider the compound COc1cc2c(Oc3ccc(NC(=O)c4nn(-c5ccccc5OC(F)(F)F)c5ccccc5c4=O)cc3F)ccnc2cc1OCCCN1CCOCC1 . Is its IC50 strictly less than 200 nM?
Response given: Criterion not met

Challenge: For this compound, is IC50 lower than 200 nM? COc1cc2c(Oc3ccc(NC(=O)c4nn(-c5cccc(C(F)(F)F)c5)c5ccccc5c4=O)cc3F)ccnc2cc1OCCCN1CCC(C)CC1
Response given: Criterion met

Challenge: Problem: For the compound COc1cc2c(Oc3ccc(NC(=O)c4nn(-c5ccccc5)c5ccccc5c4=O)cc3F)ccnc2cc1OCCCN1CCOCC1 , is IC50 under 200 nM?
Response given: Criterion not met

Challenge: Problem: For the compound COc1cc2c(Oc3ccc(NC(=O)c4nn(-c5ccccc5C(F)(F)F)c5ccccc5c4=O)cc3F)ccnc2cc1OCCCN1CCCC1 , is IC50 under 200 nM?
Response given: Criterion met

---

# System: A549
# EXPERIMENT DESCRIPTION: Cytotoxicity against c-Met-dependent human A549 cells assessed as growth inhibition after 72 hrs by MTT assay
# ASSAY CONDITIONS: A549, 72 h
TEST READOUT: IC50 (nM)
I only need the number, in nM, no unit after it.

Example entries begin here.
>>> numeric_readout("COc1cc2c(Oc3ccc(NC(=O)c4nn(-c5ccccc5Cl)c5cc(F)ccc5c4=O)cc3F)ccnc2cc1OCCCN1CCC(C)CC1")
1050
>>> numeric_readout("COc1cc2c(Oc3ccc(NC(=O)c4nn(-c5ccc(C)cc5)c5ccccc5c4=O)cc3F)ccnc2cc1OCCCN1CCC(C)CC1")
1050
>>> numeric_readout("COc1cc2c(Oc3ccc(NC(=O)c4nn(-c5ccccc5)c5ccccc5c4=O)cc3F)ccnc2cc1OCCCN1CCOCC1")
570
>>> numeric_readout("COc1cc2c(Oc3ccc(NC(=O)c4nn(-c5ccccc5C(F)(F)F)c5ccccc5c4=O)cc3F)ccnc2cc1OCCCN1CCCCC1")
55
>>> numeric_readout("COc1cc2c(Oc3ccc(NC(=O)c4nn(-c5ccccc5Cl)c5cc(F)ccc5c4=O)cc3F)ccnc2cc1OCCCN1CCCCC1")
1820
>>> numeric_readout("COc1cc2c(Oc3ccc(NC(=O)c4nn(-c5ccccc5F)c5cc(F)ccc5c4=O)cc3F)ccnc2cc1OCCCN1CCCCC1")
3270
>>> numeric_readout("COc1cc2c(Oc3ccc(NC(=O)c4nn(-c5cccc(C(F)(F)F)c5)c5ccccc5c4=O)cc3F)ccnc2cc1OCCCN1CCC(C)CC1")
210

Here is another compound to look at.
Challenge: Name the reported IC50 value associated with the compound COc1cc2c(Oc3ccc(NC(=O)c4nn(-c5cccc(C(F)(F)F)c5)c5ccccc5c4=O)cc3F)ccnc2cc1OCCCN1CCCC1
Response given: 300
